Assay Comment: preliminary PK in mCRPC participants (Phase 1/2)
Assay type: in vivo, human
Settings: human, plasma, oral, 80 mg, 80 mg QD, individual value (n = 1); read-out: Cmax Day 21
Measurement Label: Cmax (ng/mL)
Note: unit ng/mL is implicit; provide only the numeric part.

Name the recorded Cmax of the compound listed here: COc1cc(O[C@H]2C(C)(C)[C@H](NC(=O)c3ccc(N4CCC(CN5CCN(c6ccc(C(=O)N[C@H]7CCC(=O)NC7=O)c(F)c6)CC5)CC4)cc3)C2(C)C)ccc1C#N [Compound A]
139

====

Assay Comment: preliminary PK in mCRPC participants (Phase 1/2)
Format: in vivo, human
Settings: male, human, plasma, oral, 100 mg, 100 mg QD, Mean (CV %); read-out: Cmax Day 21
Measurement Label: Cmax (ng/mL)
Could you give me the number in ng/mL? Just the number is fine.

Identify the reported Cmax for the following entry. COc1cc(O[C@H]2C(C)(C)[C@H](NC(=O)c3ccc(N4CCC(CN5CCN(c6ccc(C(=O)N[C@H]7CCC(=O)NC7=O)c(F)c6)CC5)CC4)cc3)C2(C)C)ccc1C#N
233

====

Assay Comment: preliminary PK in mCRPC participants (Phase 1/2)
Type: in vivo, human
Settings: male, human, plasma, oral, 400 mg, 400 mg QD, Mean (CV %); read-out: AUC0-24 Day 21
Measurement Label: AUC(0-t) (ng·h/mL)
Give just the number in ng·h/mL; leave the unit off.

Give a short answer stating reported AUC(0-t) for COc1cc(O[C@H]2C(C)(C)[C@H](NC(=O)c3ccc(N4CCC(CN5CCN(c6ccc(C(=O)N[C@H]7CCC(=O)NC7=O)c(F)c6)CC5)CC4)cc3)C2(C)C)ccc1C#N .
11900

====

Assay Comment: preclinical exposure in the VCaP tumor xenograft mouse model
Settings: CB17/scid, in vivo, oral, 1 mg/kg/day, read-out: AUCinf, minimally efficacious preclinical exposure
Measurement Label: AUC(0-inf) (ng·h/mL)
Enter your answer as a number in ng·h/mL; do not include the unit.

Give me measured AUC(0-inf), please, for this compound: COc1cc(O[C@H]2C(C)(C)[C@H](NC(=O)c3ccc(N4CCC(CN5CCN(c6ccc(C(=O)N[C@H]7CCC(=O)NC7=O)c(F)c6)CC5)CC4)cc3)C2(C)C)ccc1C#N [Compound A]
3930

====

Assay Comment: preliminary PK in mCRPC participants (Phase 1/2)
Assay type: in vivo, human
Settings: male, human, plasma, oral, 100 mg, 100 mg QD, Mean (CV %); read-out: Cmax Day 1
Measurement Label: Cmax (ng/mL)
Please state the figure in ng/mL; there is no need to write the unit.

Given COc1cc(O[C@H]2C(C)(C)[C@H](NC(=O)c3ccc(N4CCC(CN5CCN(c6ccc(C(=O)N[C@H]7CCC(=O)NC7=O)c(F)c6)CC5)CC4)cc3)C2(C)C)ccc1C#N , respond with its Cmax.
45.1

====

Assay Comment: food/PPI effect on single-dose PK in healthy volunteers (phase 1)
Type: in vivo, human
Settings: male, human, plasma, oral, 200 mg, 200 mg alone, fed; read-out: AUCinf, Geometric LS Mean
Measurement Label: AUC(0-inf) (ng·h/mL)
Give the value, in units of ng·h/mL, as a plain number.

Supply recorded AUC(0-inf) for COc1cc(O[C@H]2C(C)(C)[C@H](NC(=O)c3ccc(N4CCC(CN5CCN(c6ccc(C(=O)N[C@H]7CCC(=O)NC7=O)c(F)c6)CC5)CC4)cc3)C2(C)C)ccc1C#N [Compound A] here.
10600
